target: human RORγt (Homo sapiens, UniProt P51449); construct: the full-length cDNA of human RORγt; experiment: RORE Luciferase/RORγt transactivation assay; settings: COS-7 cells, human IL-17 promoter reporter + RORγt plasmid, 20 h; read-out: IC50, inhibition of RORγt activity (luciferase)
endpoint label: IC50

Examples with answers:
Return reported IC50 for target or system human RORγt (Homo sapiens, UniProt P51449), item Cc1ccc(C(NC(=O)Cc2cccc(N3CCN(C(=O)C(F)(F)F)CC3)n2)c2ccc(C)o2)c(N2CCCCC2)c1 (stereo not drawn) [Cpd.16] .
0.1 to 1 µM

Return reported IC50 for target or system human RORγt (Homo sapiens, UniProt P51449), item COC(=O)C1CCN(c2ncc(CC(=O)NC(c3ccc(C)o3)c3ccc(C)cc3N3CCCCC3)cn2)CC1 (stereo not drawn) [Cpd.7] .
1 to 10 µM

Others:
Return reported IC50 for target or system human RORγt (Homo sapiens, UniProt P51449), item CC(=O)N1CCN(c2cncc(CC(=O)NC(c3ccc(C)o3)c3ccc(C)cc3N3CCCCC3)c2)CC1 (stereo not drawn) [Cpd.14] .
0.1 to 1 µM

* * *

pIC50: recorded values
Target: RORγt ligand-binding domain (RORγt-LBD) (Homo sapiens, UniProt P51449)
Construct: 20 nM recombinantly expressed RORγ-LBD fused to GST
Sequence (P51449 269-508 limits assumed): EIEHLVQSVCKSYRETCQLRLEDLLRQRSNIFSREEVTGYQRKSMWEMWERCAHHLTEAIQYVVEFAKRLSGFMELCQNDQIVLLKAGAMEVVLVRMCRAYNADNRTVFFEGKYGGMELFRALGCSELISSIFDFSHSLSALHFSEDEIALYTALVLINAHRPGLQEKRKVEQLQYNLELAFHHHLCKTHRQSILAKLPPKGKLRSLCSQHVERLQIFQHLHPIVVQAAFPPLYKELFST
Assay: Time-resolved FRET (TR-FRET) RORγt coactivator assay
Assay type: biochemical
Details: GST-RORγ-LBD, biotinylated RIP140 peptide, 2 hours; read-out: IC50, coactivator displacement
pIC50: −log10 of the molar value.

Examples with answers:
State, in one line, measured pIC50 of Cc1ccc(C(NC(=O)Cc2cnc(N3CCC(C(=O)O)CC3)nc2)c2ccc(C)o2)c(N2CCCCC2)c1 (stereo not shown)
> 7.00

State, in one line, measured pIC50 of Cc1ccc(C(NC(=O)Cc2cccc(N3CCN(C(=O)C(F)(F)F)CC3)n2)c2ccc(C)o2)c(N2CCCCC2)c1 (stereo not shown)
6.00 to 7.00

State, in one line, measured pIC50 of CC(=O)N1CCN(c2ncc(CC(=O)NC(c3ccc(C)o3)c3ccc(C)cc3N3CCCCC3)cn2)CC1 (stereo not shown)
> 7.00

Now for the compound whose pIC50 we want.
State, in one line, measured pIC50 of COC(=O)C1CCN(c2ncc(CC(=O)NC(c3ccc(C)o3)c3ccc(C)cc3N3CCCCC3)cn2)CC1 (stereo not shown)
6.00 to 7.00

Data credit: patent US11974997B2
